system: A. baumannii 1318; type: cell-based, Acinetobacter baumannii
Residues, ends and D or L forms follow the SMILES beside them.
measured.endpoint: MIC Gram- A. b 1318

INSERT INTO measurements (compound, measured_endpoint, result) VALUES
  ('CC[C@H](C)[C@H](NC(=O)[C@H](CCCNC(=N)N)NC(=O)[C@H](CCCNC(=N)N)NC(=O)[C@H](CC(C)C)NC(=O)[C@H](Cc1ccccc1)NC(=O)[C@@H](N)CCCNC(=N)N)C(=O)N[C@@H](Cc1ccccc1)C(=O)N[C@@H](CCCCN)C(=O)N[C@@H](Cc1ccccc1)C(=O)N[C@@H](Cc1ccccc1)C(=O)N[C@@H](Cc1ccccc1)C(N)=O [HT5] (H-RFLRRIFKFFF-NH2)', 'MIC Gram- A. b 1318', '3.13 µM');
